target: Cav1.3 L-type Ca channels (Rattus norvegicus, UniProt P27732); construct: expressed in transfected cells; host or cells: HEK293; assay: FLIPR Fluo-8 calcium assay, Cav1.3 channel inhibition in HEK293 cells; format: cell-based; details: IC50 (μM) Cav1.3, third library; FLIPR, HEK293; value (±SD)
Sequence (P27732 whole entry): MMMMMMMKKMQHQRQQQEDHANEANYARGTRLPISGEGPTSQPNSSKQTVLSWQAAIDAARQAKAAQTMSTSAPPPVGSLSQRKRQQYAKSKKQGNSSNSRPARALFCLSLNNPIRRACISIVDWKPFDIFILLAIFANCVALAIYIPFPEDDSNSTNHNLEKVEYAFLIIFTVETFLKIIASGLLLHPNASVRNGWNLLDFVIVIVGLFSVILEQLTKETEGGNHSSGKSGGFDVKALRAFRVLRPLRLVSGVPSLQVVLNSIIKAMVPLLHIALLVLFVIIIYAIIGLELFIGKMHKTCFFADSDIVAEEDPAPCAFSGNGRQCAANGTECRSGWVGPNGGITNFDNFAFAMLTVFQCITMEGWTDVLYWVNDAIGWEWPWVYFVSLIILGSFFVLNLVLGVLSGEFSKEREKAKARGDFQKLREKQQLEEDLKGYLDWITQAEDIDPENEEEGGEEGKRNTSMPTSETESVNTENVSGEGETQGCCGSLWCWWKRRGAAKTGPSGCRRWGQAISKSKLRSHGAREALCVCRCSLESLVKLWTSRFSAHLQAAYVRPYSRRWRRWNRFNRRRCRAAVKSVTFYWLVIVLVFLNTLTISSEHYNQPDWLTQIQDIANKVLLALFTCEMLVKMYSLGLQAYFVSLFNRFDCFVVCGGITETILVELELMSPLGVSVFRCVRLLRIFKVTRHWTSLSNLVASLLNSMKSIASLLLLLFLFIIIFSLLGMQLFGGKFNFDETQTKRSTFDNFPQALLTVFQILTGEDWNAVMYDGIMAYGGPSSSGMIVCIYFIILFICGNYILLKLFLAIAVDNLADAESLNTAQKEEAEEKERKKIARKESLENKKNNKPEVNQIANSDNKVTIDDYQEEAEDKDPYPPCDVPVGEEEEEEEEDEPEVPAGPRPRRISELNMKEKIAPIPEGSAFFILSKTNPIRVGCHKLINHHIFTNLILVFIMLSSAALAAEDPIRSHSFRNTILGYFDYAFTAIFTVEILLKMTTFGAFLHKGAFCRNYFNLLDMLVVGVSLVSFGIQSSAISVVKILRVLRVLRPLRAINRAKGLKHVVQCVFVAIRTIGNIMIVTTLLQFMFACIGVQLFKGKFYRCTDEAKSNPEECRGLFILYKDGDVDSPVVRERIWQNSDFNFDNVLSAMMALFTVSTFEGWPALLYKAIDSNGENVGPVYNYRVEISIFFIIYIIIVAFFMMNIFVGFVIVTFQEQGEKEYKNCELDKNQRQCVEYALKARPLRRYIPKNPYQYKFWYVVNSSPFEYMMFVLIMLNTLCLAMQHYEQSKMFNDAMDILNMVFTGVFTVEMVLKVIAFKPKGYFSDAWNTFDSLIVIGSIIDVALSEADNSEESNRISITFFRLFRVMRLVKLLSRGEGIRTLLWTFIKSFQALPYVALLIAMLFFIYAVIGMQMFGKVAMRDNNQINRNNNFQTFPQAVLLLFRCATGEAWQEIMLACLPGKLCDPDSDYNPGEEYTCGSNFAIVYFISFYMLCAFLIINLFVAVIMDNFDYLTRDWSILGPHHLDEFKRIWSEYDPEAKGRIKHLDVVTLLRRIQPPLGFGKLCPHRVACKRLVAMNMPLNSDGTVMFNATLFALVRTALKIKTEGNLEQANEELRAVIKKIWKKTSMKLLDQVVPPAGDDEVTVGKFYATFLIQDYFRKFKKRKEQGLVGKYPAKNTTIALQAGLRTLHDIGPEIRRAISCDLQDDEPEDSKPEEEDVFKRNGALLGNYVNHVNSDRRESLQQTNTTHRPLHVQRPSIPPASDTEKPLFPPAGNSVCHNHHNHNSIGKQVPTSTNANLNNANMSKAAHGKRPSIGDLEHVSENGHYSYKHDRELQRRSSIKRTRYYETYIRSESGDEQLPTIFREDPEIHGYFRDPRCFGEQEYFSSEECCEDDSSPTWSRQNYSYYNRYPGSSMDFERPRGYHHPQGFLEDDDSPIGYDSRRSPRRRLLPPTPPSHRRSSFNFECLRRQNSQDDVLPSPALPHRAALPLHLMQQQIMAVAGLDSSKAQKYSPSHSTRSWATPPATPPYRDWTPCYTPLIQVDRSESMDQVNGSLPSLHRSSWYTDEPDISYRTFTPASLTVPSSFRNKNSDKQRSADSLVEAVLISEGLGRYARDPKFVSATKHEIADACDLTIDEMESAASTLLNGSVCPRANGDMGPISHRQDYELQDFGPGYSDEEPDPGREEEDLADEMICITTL
Sequence (P54284 whole entry partner): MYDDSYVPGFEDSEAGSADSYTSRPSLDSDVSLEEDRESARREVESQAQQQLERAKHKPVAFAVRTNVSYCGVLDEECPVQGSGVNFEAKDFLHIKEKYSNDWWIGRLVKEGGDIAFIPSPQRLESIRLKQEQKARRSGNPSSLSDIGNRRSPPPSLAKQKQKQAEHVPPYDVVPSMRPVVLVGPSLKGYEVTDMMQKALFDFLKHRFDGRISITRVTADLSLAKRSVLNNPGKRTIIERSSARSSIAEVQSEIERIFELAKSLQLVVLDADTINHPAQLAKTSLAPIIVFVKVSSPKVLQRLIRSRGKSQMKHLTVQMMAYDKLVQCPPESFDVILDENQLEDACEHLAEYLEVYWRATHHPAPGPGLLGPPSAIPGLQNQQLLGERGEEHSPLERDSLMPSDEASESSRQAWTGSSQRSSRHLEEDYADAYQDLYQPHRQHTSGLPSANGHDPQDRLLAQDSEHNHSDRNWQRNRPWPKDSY
Sequence (P54289 25-956 partner limits assumed): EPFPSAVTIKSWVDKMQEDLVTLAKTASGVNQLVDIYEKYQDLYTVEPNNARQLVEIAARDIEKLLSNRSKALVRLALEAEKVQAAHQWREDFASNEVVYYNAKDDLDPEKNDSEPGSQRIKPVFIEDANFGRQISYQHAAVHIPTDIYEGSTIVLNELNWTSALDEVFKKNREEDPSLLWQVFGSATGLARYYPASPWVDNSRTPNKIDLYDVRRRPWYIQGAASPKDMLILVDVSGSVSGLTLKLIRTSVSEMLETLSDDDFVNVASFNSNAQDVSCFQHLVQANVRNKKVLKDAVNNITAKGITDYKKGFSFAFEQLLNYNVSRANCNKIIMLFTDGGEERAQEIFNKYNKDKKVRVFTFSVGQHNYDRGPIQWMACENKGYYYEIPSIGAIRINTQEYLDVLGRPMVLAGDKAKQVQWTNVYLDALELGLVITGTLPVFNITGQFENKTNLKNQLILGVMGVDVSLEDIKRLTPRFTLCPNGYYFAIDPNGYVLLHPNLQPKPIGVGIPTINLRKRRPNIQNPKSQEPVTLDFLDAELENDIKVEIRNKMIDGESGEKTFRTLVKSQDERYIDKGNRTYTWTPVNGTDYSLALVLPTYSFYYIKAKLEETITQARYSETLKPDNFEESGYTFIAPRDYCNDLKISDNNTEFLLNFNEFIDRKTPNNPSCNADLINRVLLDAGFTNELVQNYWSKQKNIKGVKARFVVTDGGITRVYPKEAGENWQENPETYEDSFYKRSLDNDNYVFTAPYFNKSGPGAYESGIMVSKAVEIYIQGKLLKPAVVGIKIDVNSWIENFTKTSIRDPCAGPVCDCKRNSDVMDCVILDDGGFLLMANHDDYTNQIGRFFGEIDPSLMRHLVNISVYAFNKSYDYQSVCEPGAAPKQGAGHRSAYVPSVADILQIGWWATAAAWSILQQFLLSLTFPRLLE
Sequence (P54289 957-1103 partner limits assumed): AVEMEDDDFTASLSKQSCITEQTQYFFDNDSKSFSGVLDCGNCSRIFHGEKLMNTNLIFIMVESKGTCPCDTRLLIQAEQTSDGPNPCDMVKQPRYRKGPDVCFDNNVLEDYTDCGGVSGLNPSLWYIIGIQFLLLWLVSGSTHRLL
Records here are stratified by IC50; strata: low end (below 2 µM), middle (2 µM to below 3 µM), high end (3 µM or more)

Query string: State the band of O=C1CC(=O)N(CC2CCCCC2)C(=O)N1CCc1cccc(C(F)(F)F)c1
Result string: low end

Query string: Where would CCC(C)N1C(=O)CC(=O)N(CCc2cccc(C(F)(F)F)c2)C1=O (stereo not drawn) land among the classes by reported IC50?
Result string: high end

Query string: Hi, small favor: classify CC(Cc1ccccc1)N1C(=O)CC(=O)N(C2CCCC2)C1=O (racemic) by its IC50 when you get a moment.
Result string: low end

Query string: Note: place this compound into its band. Item: O=C1CC(=O)N(c2cccc(F)c2)C(=O)N1CCc1cccc(Cl)c1
Result string: high end

Query string: Hi there! Could you help me figure out the category for O=C1CC(=O)N(C2CC2)C(=O)N1CCc1cccc(Cl)c1 please?
Result string: high end

Query string: Bin? O=C1CC(=O)N(C2C3CC4CC(C3)CC2C4)C(=O)N1CCc1ccc(Cl)cc1 (stereo not drawn)
Result string: middle

Query string: Please classify: O=C1CC(=O)N(C23CC4CC(CC(C4)C2)C3)C(=O)N1CCc1ccc(Cl)cc1
Result string: high end

Query string: State the band of O=C1CC(=O)N(C2CCCC2)C(=O)N1CCc1cccc(C(F)(F)F)c1
Result string: low end

Query string: Category of CC(CN1C(=O)CC(=O)N(C2CCCC2)C1=O)c1ccccc1 (racemic) :
Result string: low end

Query string: Band for Cc1cccc(CCN2C(=O)CC(=O)N(C3CCCCCC3)C2=O)c1 ?
Result string: high end

Query string: Which bin, given its IC50, does Cc1cccc(CCN2C(=O)CC(=O)N(C3CCCC3)C2=O)c1 occupy?
Result string: low end

Query string: Form: Item = O=C1CC(=O)N(CC2CCCCC2)C(=O)N1CCc1ccc(Cl)cc1 ; Class = ?
Result string: low end

Query string: Category of O=C1CC(=O)N(CC2CCCCC2)C(=O)N1CCc1cccc(Cl)c1 , please.
Result string: low end

Query string: Textbook exercise: identify the category of the compound given here, O=C1CC(=O)N(C2CCCCCC2)C(=O)N1CCc1ccc(Cl)cc1 , according to its measured value.
Result string: middle

Query string: Category of O=C1CC(=O)N(C2CCC2)C(=O)N1CCc1cccc(Cl)c1 :
Result string: middle

Query string: Any idea which band CC(C)(C)N1C(=O)CC(=O)N(CCc2cccc(Cl)c2)C1=O is in?
Result string: high end

Query string: Sort O=C1CC(=O)N(C2CCCCCC2)C(=O)N1CCc1cccc(C(F)(F)F)c1 into one of the categories.
Result string: low end

Query string: Which class does O=C1CC(=O)N(C2CCCC2)C(=O)N1CCc1cccc(Cl)c1 fall in?
Result string: low end

Query string: Consider Cc1ccc(CCN2C(=O)CC(=O)N(C3CCCC3)C2=O)cc1 . To which IC50 class does it belong?
Result string: low end

Query string: Lab note: sort O=C1CC(=O)N(C2C3CC4CC(C3)CC2C4)C(=O)N1CCc1cccc(Cl)c1 (stereo not drawn) into the matching IC50 band.
Result string: low end

Query string: State the band of Cc1ccc(CCN2C(=O)CC(=O)N(C3CCCCCC3)C2=O)cc1
Result string: low end

Query string: Form field 'band' for O=C1CC(=O)N(C2CC2)C(=O)N1CCc1ccc(Cl)cc1
Result string: high end

Query string: Field: class (IC50) — entry: CC(C)(C)N1C(=O)CC(=O)N(CCc2cccc(C(F)(F)F)c2)C1=O
Result string: low end

Query string: Category of O=C1CC(=O)N(C23CC4CC(CC(C4)C2)C3)C(=O)N1CCc1cccc(Cl)c1 :
Result string: middle
